- experimental.target: human PD-1 expressed on cells (human, UniProt Q15116 25-288)
- Sequence (Q15116 25-288): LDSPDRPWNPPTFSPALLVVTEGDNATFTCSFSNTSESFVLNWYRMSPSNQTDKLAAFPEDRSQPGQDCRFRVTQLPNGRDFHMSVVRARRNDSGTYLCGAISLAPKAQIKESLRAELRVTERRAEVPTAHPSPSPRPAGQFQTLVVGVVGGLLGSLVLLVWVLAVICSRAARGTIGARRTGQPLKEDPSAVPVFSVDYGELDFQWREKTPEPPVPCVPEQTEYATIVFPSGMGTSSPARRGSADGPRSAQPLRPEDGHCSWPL
- assay.explanation: cell-based or functional assay
reported.metric: IL-2 release in HuT78/PD-1, EC50
Provide the measurement as a number trailed by its unit.

A selection of reference data follows.
binder: hu326-2 S85N (antibody, V domains shown, mAb; constant regions not restated (hu326-1 is IgG2 / kappa); Back mutation to murine) VH: QVQLVQSGSELKKPGASVKVSCKASGYTFTNYGMNWVRQAPGQGLEWMGWINNNNGEPTYAQGFRGRFVFSLDTSASTAYLQISNLKTEDTAVYFCARDVMDYWGQGTTVTVSS VL: DIVLTQSPASLAVSPGQRATITCRASESVDNYGYSFMHWYQQKPGQPPKLLIYRASNLESGVPARFSGSGSRTDFTLTINPVEANDTANYYCQQSKEYPTFGGGTKVEIK
IL-2 release in HuT78/PD-1, EC50: 0.104 mg/L
//
binder: hu326-2 G63D (antibody, V domains shown, mAb; constant regions not restated (hu326-1 is IgG2 / kappa); Back mutation to murine) VH: QVQLVQSGSELKKPGASVKVSCKASGYTFTNYGMNWVRQAPGQGLEWMGWINNNNGEPTYAQDFRGRFVFSLDTSASTAYLQISSLKTEDTAVYFCARDVMDYWGQGTTVTVSS VL: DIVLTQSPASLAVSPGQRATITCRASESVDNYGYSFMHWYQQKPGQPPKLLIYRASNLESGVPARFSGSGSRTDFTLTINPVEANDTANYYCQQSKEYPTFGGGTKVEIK
IL-2 release in HuT78/PD-1, EC50: 0.12 mg/L
//
binder: hu326-2 E46K (antibody, V domains shown, mAb; constant regions not restated (hu326-1 is IgG2 / kappa); Back mutation to murine) VH: QVQLVQSGSELKKPGASVKVSCKASGYTFTNYGMNWVRQAPGQGLKWMGWINNNNGEPTYAQGFRGRFVFSLDTSASTAYLQISSLKTEDTAVYFCARDVMDYWGQGTTVTVSS VL: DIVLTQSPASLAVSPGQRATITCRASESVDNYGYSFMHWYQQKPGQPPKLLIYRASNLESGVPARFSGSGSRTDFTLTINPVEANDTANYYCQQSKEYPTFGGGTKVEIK
IL-2 release in HuT78/PD-1, EC50: 0.259 mg/L

Given hu326-2 S84N (antibody, V domains shown, mAb; constant regions not restated (hu326-1 is IgG2 / kappa); Back mutation to murine) VH: QVQLVQSGSELKKPGASVKVSCKASGYTFTNYGMNWVRQAPGQGLEWMGWINNNNGEPTYAQGFRGRFVFSLDTSASTAYLQINSLKTEDTAVYFCARDVMDYWGQGTTVTVSS VL: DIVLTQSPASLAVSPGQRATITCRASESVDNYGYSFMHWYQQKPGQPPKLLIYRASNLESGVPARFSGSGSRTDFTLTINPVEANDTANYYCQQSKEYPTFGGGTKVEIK , respond with its IL-2 release in HuT78/PD-1, EC50.
0.126 mg/L

Given hu326-2 A16E (antibody, V domains shown, mAb; constant regions not restated (hu326-1 is IgG2 / kappa); Back mutation to murine) VH: QVQLVQSGSELKKPGESVKVSCKASGYTFTNYGMNWVRQAPGQGLEWMGWINNNNGEPTYAQGFRGRFVFSLDTSASTAYLQISSLKTEDTAVYFCARDVMDYWGQGTTVTVSS VL: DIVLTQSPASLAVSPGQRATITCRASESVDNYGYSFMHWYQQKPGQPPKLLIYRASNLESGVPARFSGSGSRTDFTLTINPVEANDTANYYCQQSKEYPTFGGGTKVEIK , respond with its IL-2 release in HuT78/PD-1, EC50.
0.126 mg/L
